All figures here come from paper PMC4128710.

The following compounds each carry a recorded EC50 for A2BAR (Homo sapiens).
readout: EC50 (nM)

> print(dat)
                                 smilesrepr  readout  valuemeasured
1  N#Cc1c(N)nc(SCC(N)=O)c(C#N)c1-c1ccc(OCC2CC2)cc1     EC50           45.3
2  Nc1nc(OCCc2c[nH]c3cc(Br)ccc23)nc2c1ncn2[C@@H]1O[C@H](CO)[C@@H](O)[C@H]1O     EC50            480
3  OC[C@H]1O[C@@H](n2cnc3c(Nc4ccc(I)cc4)ncnc32)[C@H](O)[C@@H]1O     EC50            321
